Origin of values: a melting point compilation (Tetko et al.; mined from patent text by program, amines drawn as free bases though some values may be those of a salt)

Below, each entry is listed with its recorded melting point.

Worked cases, melting point given:
ON=C1CCCOc2ccccc21 = 96 to 98 °C
CC(Oc1ncn(-c2cccc(Br)c2)n1)C(=O)NC1CC1 (stereo not given) = 134 to 135 °C
O=C(N[C@H]1CC[C@H](CCN2CCN(c3nccc4c3OCC4)CC2)CC1)c1ccc2ncccc2c1 = 212 °C

Entry under test: COc1cc(OCc2ccccn2)ccc1/C=C/c1cc(/C=C/c2ccc3c(c2)OCO3)n[nH]1 . Its melting point was 218 to 220 °C

Entry under test: c1cc2c(cc1-c1nnc(SCC3CC3)o1)CCO2 . Its melting point was 57 to 58 °C
